Settings: in isopropanol, 308.15 K
measuredParameter: solubility (mole fraction)

[[record]]
moleculesmiles = "NC(=O)c1cnccn1"
experimentalvalue = 0.00365


====

Details: in acetonitrile, 283.15 K
measuredParameter: solubility (mole fraction)

[[record]]
moleculesmiles = "NC(=O)c1cnccn1"
measuredparameter = "solubility (mole fraction)"
experimentalvalue = 0.00162


====

Conditions: in acetonitrile, 293.15 K
measuredParameter: solubility (mole fraction)

[[record]]
moleculesmiles = "NC(=O)c1cnccn1"
experimentalvalue = 0.00248


====

Conditions: in methanol, 318.15 K
measuredParameter: solubility (mole fraction)

[[record]]
moleculesmiles = "NC(=O)c1cnccn1"
experimentalvalue = 0.01

